I'd be grateful if you could share measured pKi for these entries.
Keep it numeric: pKi is minus log10 of the concentration in mol/L.

In: # returns recorded pKi (system: Human 5-HT7 (Homo sapiens)) for CN(C)C1CCc2c(cccc2-c2ccc(F)cc2)C1 (racemic) [(R/S)-Methyl / Phenyl-4′-F]
Sequence (P34969 1-445 isoform P34969-2): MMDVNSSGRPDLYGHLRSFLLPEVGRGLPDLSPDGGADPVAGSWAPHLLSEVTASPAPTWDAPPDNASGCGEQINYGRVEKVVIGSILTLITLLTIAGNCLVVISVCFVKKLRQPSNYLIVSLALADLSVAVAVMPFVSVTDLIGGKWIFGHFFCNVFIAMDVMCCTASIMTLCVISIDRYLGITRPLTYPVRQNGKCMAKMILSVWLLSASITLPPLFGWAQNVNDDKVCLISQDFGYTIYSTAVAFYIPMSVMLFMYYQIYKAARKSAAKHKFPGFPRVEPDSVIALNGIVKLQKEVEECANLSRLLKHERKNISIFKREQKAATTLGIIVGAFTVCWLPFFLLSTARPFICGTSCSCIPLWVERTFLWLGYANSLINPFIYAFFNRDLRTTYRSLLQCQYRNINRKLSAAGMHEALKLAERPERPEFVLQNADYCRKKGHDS
Out: 6.92

In: Entry CN(C)[C@H]1CCc2c(cccc2-c2ccccc2)C1 [(S)-Methyl / Phenyl] , system Human 5-HT7 (Homo sapiens): what pKi was measured?
Out: 8.05

In: Give recorded pKi with Human 5-HT7 (Homo sapiens) for the following compound: CN(C)[C@H]1CCc2c(cccc2-c2ccccc2Cl)C1 [(S)-Methyl / Phenyl-2′-Cl]
Out: 8.22

In: What pKi appears in the records for this compound with Human 5-HT7 (Homo sapiens)? CN(C)[C@@H]1CCc2c(cccc2-c2ccccc2Cl)C1 [(R)-Methyl / Phenyl-2′-Cl]
Out: 7.24

In: Could you share what pKi was measured for CN(C)[C@@H]1CCc2c(cccc2-c2ccccc2F)C1 [(R)-Methyl / Phenyl-2′-F] , tested on Human 5-HT7 (Homo sapiens)?
Out: 6.59

In: Hello, I am looking for reported pKi with Human 5-HT7 (Homo sapiens) for CN(C)C1CCc2c(cccc2C2CCCC2)C1 (racemic) [(R/S)-Methyl / Cyclopentyl] . Could you help?
Out: 6.62

In: // map CN(C)[C@@H]1CCc2c(cccc2-c2ccccc2)C1 [(R)-Methyl / Phenyl] to recorded pKi (system: Human 5-HT7 (Homo sapiens))
Out: 5.36

In: Under Human 5-HT7 (Homo sapiens): pKi value of CN(C)[C@H]1CCc2c(cccc2-c2ccc(Cl)cc2)C1 [(S)-Methyl / Pheny-4′-Cl] ?
Out: 7.14

In: Lab note: need pKi with Human 5-HT7 (Homo sapiens) for entry CCCN(CCC)[C@@H]1CCc2c(cccc2-c2ccccc2F)C1 [(R)-Propyl / 2′-F-Phenyl] , please look it up.
Out: 7.20

In: API: value(readout= pKi, system= Human 5-HT7 (Homo sapiens), query= CN(C)C1CCc2c(cccc2-c2cccc(C(F)(F)F)c2)C1 (racemic) [(R/S)-Methyl / Phenyl-3′-CF3] )
Out: 7.20

In: Look up pKi with Human 5-HT7 (Homo sapiens) for this compound: CN(C)C1CCc2c(cccc2-c2cc(F)cc(F)c2)C1 (racemic) [(R/S)-Methyl / Phenyl-3′,5′-F]
Out: 6.74

In: Value wanted: pKi (Human 5-HT7 (Homo sapiens)) of entry CN(C)C1CCc2c(cccc2-c2cccc(Cl)c2)C1 (racemic) [(R/S)-Methyl / Phenyl-3′-Cl]
Out: 7.74

In: # returns recorded pKi (system: Human 5-HT7 (Homo sapiens)) for CN(C)[C@H]1CCc2c(cccc2-c2cc(C(F)(F)F)cc(C(F)(F)F)c2)C1 [(S)-Methyl / Phenyl-3′,5′-CF3]
Out: 6.04

In: Missing value: pKi, Human 5-HT7 (Homo sapiens), entry COc1cccc(-c2cccc3c2CCC(N(C)C)C3)c1 (racemic) [(R/S)-Methyl / Phenyl-3′-OMe] . Fill in?
Out: 7.43

In: Please provide the recorded pKi for CN(C)C1CCc2c(cccc2-c2ccc(F)cc2Cl)C1 (racemic) [(R/S)-Methyl / Phenyl-2′-Cl-4′-F] , tested on Human 5-HT7 (Homo sapiens).
Out: 7.52

Sourced from patent US10548856B2
